Source of measurements: ChEMBL document CHEMBL1144355

system: Pseudomonas aeruginosa; test: In vitro antibacterial activity against Pseudomonas aeruginosa IID1210; assay type: functional
ATTRIBUTE MEASURED: MIC (µg/mL)

{"COMPOUND STRUCTURE STRING": "CN1CCN(c2cc3c(cc2F)c(=O)c(C(=O)O)cn3C2CC2)CC1", "UNIT OF MEASURE": "µg/mL", "MIC": 0.78}

A: CN1CCN(c2cc3c(cc2F)c(=O)c(C(=O)O)cn3-c2ccc(F)cc2F)CC1
B: CN1CCN(c2cc3c(cc2F)c(=O)c(C(=O)O)cn3C)CC1
C: CN1CCN(c2cc3c(cc2F)c(=O)c(C(=O)O)cn3C(F)(F)F)CC1.Cl
Query :: Let's sort these by MIC, smallest first. Go ahead? Answer by naming the labels in the order asked.
Result :: B, A, C
